Measured Target: human Fc (human)
Experiment Summary: ELISA, negative control
Property Name: optical density (OD)
Value expressed in OD; do not type the unit.

Example cases with answers are listed next.
binder="368_H03 (antibody, V domains shown) VH: EVQLLESGGGLVQPGGSLRLSCAASGFTFDDYSMHWVRQAPGKGLEWVASINYNGGYTGYADSVKGRFTISRDNSKNTLYLQMNSLRAEDTAVYYCARAATWHDTHLDYWGQGTLVTVSS VL: DIQMTQSPSSLSASVGDRVTITCRASQSILSYVNWYQQKPGKAPKLVIYAVTSRHSGVPSRFSGSGSGTDFTLTISSLQPEDFATYYCQQSYSNPLTFGGGTKVEIK" units_of_measure=OD reported=0.343
binder="369_D03 (antibody, V domains shown) VH: EVQLLESGGGLVQPGGSLRLSCAASGFTFSSYSMNWVRQAPGKGLEWVSGINYNGGYTSYADSVKGRFTISRDNSKNTLYLQMNSLRAEDTAVYYCARGANWHDTHLDYWGQGTLVTVSS VL: DIQMTQSPSSLSASVGDRVTITCRASQSILTYLNWYQQKPGKAPKLVIYAATSRASGVPSRFSGSGSGTDFTLTISSLQPEDFATYYCQQSYENPLTFGGGTKVEIK" units_of_measure=OD reported=0.391

## Task Record request: optical density value, item 369_C06 (antibody, V domains shown) VH: EVQLLESGGGLVQPGGSLRLSCAASGFTFSSYSMHWVRQAPGKGLEWVSSINYNGGYKSYADSVKGRFTISRDNSKNTLYLQMNSLRAEDTAVYYCARAATWHDTHLDYWGQGTLVTVSS VL: DIQMTQSPSSLSASVGDRVTITCRASQSILSYVNWYQQKPGKAPKLLIYAATSRASGVPSRFSGSGSGTDFTLTISSLQPEDFATYYCQQSYDSPLTFGGGTKVEIK
## Result 0.414
